Item-by-item account of log10 IC50
TGT: phosphorylated active hERK2 enzyme (Homo sapiens (Human))
ASSAY_NAME: Active Human ERK2 (hERK2) Activity Assay (IMAP-FP)
Assay type: biochemical
MEASUREMENT_SETUP: Table 6, 0.5 nM hERK2, 30 μM ATP, 10 point titration, read-out: AERK2 IC50
EXPERIMENTAL_READOUT: log10 IC50 (log10 of the value in nM)

- MOLECULE: "Nc1n[nH]c2cc(NC(=O)N[C@H](COC(F)F)c3ccccc3)ncc12 [Example 352]"
  log10 IC50: 0.08
- MOLECULE: "C[C@@H](NC(=O)Nc1cc2[nH]nc(NCCC(=O)N(C)C)c2cn1)c1ccccc1 [Example 348]"
  log10 IC50: 0.49
- MOLECULE: "C[C@H]1Cc2nc(NC(=O)N[C@H](C)c3ccccc3)cc3[nH]nc(c23)N1 [Example 139]"
  log10 IC50: 0.74
- MOLECULE: "CCNc1n[nH]c2cc(NC(=O)N[C@H](c3ccccc3)[C@@H]3CCCO3)ncc12 [Example 151]"
  log10 IC50: 2.50
- MOLECULE: "CC[C@@H](NC(=O)Nc1cc2[nH]nc(N3CCCC3)c2cn1)c1ccccn1 [Example 344]"
  log10 IC50: 3.01
- MOLECULE: "COC[C@@H](NC(=O)Nc1cc2[nH]nc(Nc3ccccc3OC)c2cn1)c1ccccc1 [Example 122]"
  log10 IC50: 0.92
- MOLECULE: "COC(=O)Nc1n[nH]c2cc(NC(=O)N[C@H](C)c3ccc(Cl)c(C(F)(F)F)c3)ncc12 [Example 309]"
  log10 IC50: 0.56
- MOLECULE: "CC1=NOC(CNc2n[nH]c3cc(NC(=O)N[C@H](C)c4ccccc4)ncc23)C1 (some centres unmarked) [Example 173]"
  log10 IC50: 0.76
- MOLECULE: "COC[C@@H](NC(=O)Nc1cc2[nH]nc(NC(C)C(F)(F)F)c2cn1)c1ccccc1 (some centres unmarked) [Example 422]"
  log10 IC50: -0.10
- MOLECULE: "C[C@H](Nc1n[nH]c2cc(NC(=O)N[C@H](C)c3ccccc3)ncc12)C(F)F [Example 354]"
  log10 IC50: 0.34
- MOLECULE: "C[C@@H](NC(=O)Nc1cc2[nH]nc(NC3CCCNC3)c2cn1)c1ccccc1 (some centres unmarked) [Example 164]"
  log10 IC50: 1.48
- MOLECULE: "CCNc1n[nH]c2cc(NC(=O)NC3COc4ccccc4C3)ncc12 (centres unmarked) [Example 233]"
  log10 IC50: 1.45
- MOLECULE: "CNc1n[nH]c2cc(NC(=O)N[C@@H](c3ccccc3)[C@H]3CCCO3)ncc12 [Example 145]"
  log10 IC50: 0.32
- MOLECULE: "COC(=O)Nc1n[nH]c2cc(NC(=O)N[C@H](COC(F)F)c3ccccc3)ncc12 [Example 288]"
  log10 IC50: -0.22
- MOLECULE: "CC[C@@H](NC(=O)Nc1cc2[nH]nc(N)c2cn1)c1ccc(Cl)cc1 [Example 273]"
  log10 IC50: 0.41
- MOLECULE: "COC(=O)Nc1n[nH]c2cc(NC(=O)NC(c3ccc(Cl)c(Cl)c3)c3cnco3)ncc12 (centres unmarked) [Example 392]"
  log10 IC50: 0.41
- MOLECULE: "C[C@@H](NC(=O)Nc1cc2[nH]nc(NCc3ccccc3)c2cn1)c1ccccc1 [Example 178]"
  log10 IC50: 0.66

----------
TGT: phosphorylated active hERK2 enzyme (Homo sapiens (Human))
ASSAY_NAME: Active Human ERK2 (hERK2) Activity Assay (IMAP-FP)
Type: biochemical
MEASUREMENT_SETUP: Table 5, 0.5 nM hERK2, 30 μM ATP, 10 point titration, read-out: AERK2 IC50
Procedure: Assays Active Human ERK2 (hERK2) Activity Assay: Activated ERK2 activity was determined in an IMAP-FP assay (Molecular Devices). […] The final reaction in each well of 25 μL consists of 0.5 nM hERK2, 900 nM unlabeled peptide, 80 nM labeled-peptide, and 30 μM ATP. […] Plates were read on EnVision reader after 60 minutes binding equilibration using Fluorescence Polarization protocol (Perkin Elmer).
EXPERIMENTAL_READOUT: log10(IC50) (log10 of the value in nM)

- MOLECULE: "CO[C@@H](C)CNC(=O)Nc1cc2[nH]nc(N3CCOCC3)c2cn1 [Example 17]"
  log10(IC50): 1.07
- MOLECULE: "CCS(=O)(=O)Nc1n[nH]c2cc(NC(=O)N[C@H](C)c3ccccc3)ncc12 [Example 50]"
  log10(IC50): 2.51
- MOLECULE: "CCNc1n[nH]c2cc(NC(=O)N[C@H](C)c3ccc(F)cc3)ncc12 [Example 5]"
  log10(IC50): 0.00
- MOLECULE: "CC(=O)Nc1n[nH]c2cc(NC(=O)N[C@H](C)c3ccccc3)ncc12 [Example 47]"
  log10(IC50): -0.18
- MOLECULE: "C[C@@H](NC(=O)Nc1cc2[nH]nc(N3CCN(C)CC3)c2cn1)c1ccccc1 [Example 13]"
  log10(IC50): 1.45
- MOLECULE: "COCCNC(=O)Nc1cc2[nH]nc(N3CCCC3)c2cn1 [Example 9]"
  log10(IC50): 2.02
- MOLECULE: "C[C@@H](NC(=O)Nc1cc2[nH]nc(N3CCC3)c2cn1)c1ccccc1 [Example 25]"
  log10(IC50): 0.68
- MOLECULE: "COC[C@@H](NC(=O)Nc1cc2[nH]nc(N3CCCC3)c2cn1)c1ccccc1 [Example 28]"
  log10(IC50): 0.00
- MOLECULE: "C[C@@H](NC(=O)Nc1cc2[nH]nc(N(C)C)c2cn1)c1ccc(F)cc1 [Example 15]"
  log10(IC50): 1.24
- MOLECULE: "CC(=O)Nc1n[nH]c2c(F)c(NC(=O)N[C@H](C)c3ccccc3)ncc12 [Example 58]"
  log10(IC50): 0.81
- MOLECULE: "C[C@@H](NC(=O)Nc1cc2[nH]nc(N3CCOCC3)c2cn1)c1ccc(F)cc1 [Example 31]"
  log10(IC50): -0.40
- MOLECULE: "CCNc1n[nH]c2cc(NC(=O)N[C@H](C)c3ccccn3)ncc12 [Example 4]"
  log10(IC50): 1.29
- MOLECULE: "COC[C@@H](NC(=O)Nc1cc2[nH]nc(N3CCC3)c2cn1)c1ccccc1 [Example 24]"
  log10(IC50): 0.68
- MOLECULE: "C[C@@H](NC(=O)Nc1cc2[nH]nc(NS(=O)(=O)C3CC3)c2cn1)c1ccccc1 [Example 52]"
  log10(IC50): 2.96
- MOLECULE: "COCCS(=O)(=O)Nc1n[nH]c2cc(NC(=O)N[C@H](C)c3ccccc3)ncc12 [Example 54]"
  log10(IC50): 2.91
- MOLECULE: "COC1CN(c2n[nH]c3cc(NC(=O)N[C@H](C)c4ccccc4)ncc23)C1 [Example 22]"
  log10(IC50): 0.94
- MOLECULE: "COC[C@@H](NC(=O)Nc1cc2[nH]nc(N3CCOCC3)c2cn1)c1ccccc1 [Example 30]"
  log10(IC50): -0.40
- MOLECULE: "CO[C@H](C)CNC(=O)Nc1cc2[nH]nc(N3CCOCC3)c2cn1 [Example 16]"
  log10(IC50): 1.31

----------
TGT: phosphorylated active hERK2 enzyme (Homo sapiens (Human), UniProt P28482)
Sequence (P28482 whole entry): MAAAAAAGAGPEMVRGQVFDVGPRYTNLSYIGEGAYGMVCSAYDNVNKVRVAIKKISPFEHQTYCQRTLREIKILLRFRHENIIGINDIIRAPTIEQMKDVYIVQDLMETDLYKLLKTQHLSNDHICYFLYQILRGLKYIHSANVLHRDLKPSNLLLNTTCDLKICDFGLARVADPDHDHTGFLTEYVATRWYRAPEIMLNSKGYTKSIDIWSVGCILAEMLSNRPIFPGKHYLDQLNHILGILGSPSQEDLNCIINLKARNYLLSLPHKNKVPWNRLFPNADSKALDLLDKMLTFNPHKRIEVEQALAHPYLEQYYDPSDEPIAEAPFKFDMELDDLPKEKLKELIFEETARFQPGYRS
ASSAY_NAME: Active Human ERK2 (hERK2) Activity Assay (IMAP-FP)
Assay type: biochemical
MEASUREMENT_SETUP: Table 6, 0.5 nM hERK2, 30 μM ATP, 10 point titration, read-out: AERK2 IC50
IC50 reference

- MOLECULE: "C[C@@H](NC(=O)Nc1cc2[nH]nc(NC(=O)OCC(F)F)c2cn1)c1ccc(F)cc1 [Example 405]"
  IC50 / nM: 21.6
- MOLECULE: "CC(CC(C)(C)O)Nc1n[nH]c2cc(NC(=O)N[C@H](C)c3ccccc3)ncc12 (some centres unmarked) [Example 191]"
  IC50 / nM: 64.3
- MOLECULE: "C[C@@H](NC(=O)Nc1cc2[nH]nc(NCC3CCNCC3)c2cn1)c1ccccc1 [Example 165]"
  IC50 / nM: 50.2
- MOLECULE: "C[C@@H](NC(=O)Nc1cc2[nH]nc(N3CCCC3=O)c2cn1)c1ccccc1 [Example 408]"
  IC50 / nM: 101
- MOLECULE: "C[C@@H](NC(=O)Nc1cc2[nH]nc(NCC(=O)N(C)C)c2cn1)c1ccccc1 [Example 347]"
  IC50 / nM: 18.3
- MOLECULE: "C[C@@H](NC(=O)Nc1cc2[nH]nc(N3CC(O)C3)c2cn1)c1ccccc1 [Example 79]"
  IC50 / nM: 9.7
- MOLECULE: "C[C@@H](O)[C@@H](NC(=O)Nc1cc2[nH]nc(N3CCc4nn(C)cc4C3)c2cn1)c1ccccc1 [Example 393]"
  IC50 / nM: 0.4
- MOLECULE: "COCCOC(=O)Nc1n[nH]c2cc(NC(=O)N[C@H](C)c3ccccc3)ncc12 [Example 221]"
  IC50 / nM: 6.6
